Tested on: human colorectal HCT-116 cancer cell line
Assay: In vitro cytotoxic screening (MTT assay), HCT-116
Assay type: cell-based
Details: 25 µM; average ± standard deviation
Could you please report measured Percentage cytotoxicity on HCT-116 for the items listed next?

Percentage cytotoxicity on HCT-116 reported for this compound O=c1c2c3c(sc2nc2nc([C@@H](O)[C@H](O)[C@H](O)CO)[nH]n12)CCC3 [Compound 11d] : 0.0±0.005%

Percentage cytotoxicity on HCT-116 reported for this compound CCOC(=O)Cc1nn2c(=O)c3c4c(sc3nc2[nH]1)CCC4 : 0.0±0.005%

Percentage cytotoxicity on HCT-116 reported for this compound O=c1c2c3c(sc2nc2[nH]cnn12)CCC3 : 0.0±0.005%

Percentage cytotoxicity on HCT-116 reported for this compound O=c1c2c3c(sc2nc2[nH]c(-c4ccc([N+](=O)[O-])cc4)nn12)CCC3 [Compound 10c] : 38.2±0.9%

Percentage cytotoxicity on HCT-116 reported for this compound O=c1c2c3c(sc2nc2[nH]c(=S)[nH]n12)CCC3 : 0.0±0.005%

---

System: human colorectal HCT-116 cancer cell line
Test: In vitro cytotoxic screening (MTT assay), HCT-116
Assay type: cell-based
Settings: 50 µM; average ± standard deviation
measuredProperty: Percentage cytotoxicity on HCT-116 (%)
Write the number in % without appending the unit.

Entry O=c1c2c3c(sc2nc2nc([C@H](O)[C@@H](O)[C@@H](O)[C@H](O)CO)[nH]n12)CCC3 [Compound 11b] : Percentage cytotoxicity on HCT-116 on human colorectal HCT-116 cancer cell line = 21.8

Entry O=c1c2c3c(sc2nc2nc([C@@H](O)[C@@H](O)[C@H](O)[C@H](O)CO)[nH]n12)CCC3 [Compound 11c] : Percentage cytotoxicity on HCT-116 on human colorectal HCT-116 cancer cell line = 22.3

Entry O=c1c2c3c(sc2nc2[nH]cnn12)CCC3 : Percentage cytotoxicity on HCT-116 on human colorectal HCT-116 cancer cell line = 0.0

Entry O=c1c2c3c(sc2nc2[nH]c(=S)[nH]n12)CCC3 : Percentage cytotoxicity on HCT-116 on human colorectal HCT-116 cancer cell line = 0.0

Entry CC(=O)C/C(C)=N/n1c(N)nc2sc3c(c2c1=O)CCC3 : Percentage cytotoxicity on HCT-116 on human colorectal HCT-116 cancer cell line = 0.0

Entry CC(=O)C/C(C)=N/n1c(N[C@@H]2O[C@H](COC(C)=O)[C@@H](OC(C)=O)[C@H](OC(C)=O)[C@H]2OC(C)=O)nc2sc3c(c2c1=O)CCC3 : Percentage cytotoxicity on HCT-116 on human colorectal HCT-116 cancer cell line = 0.0

Entry O=c1c2c3c(sc2nc2nc([C@H](O)[C@@H](O)[C@H](O)[C@H](O)CO)[nH]n12)CCC3 [Compound 11a] : Percentage cytotoxicity on HCT-116 on human colorectal HCT-116 cancer cell line = 25.8

Entry O=c1c2c3c(sc2nc2[nH]c(-c4ccc(Cl)cc4)nn12)CCC3 [Compound 10a] : Percentage cytotoxicity on HCT-116 on human colorectal HCT-116 cancer cell line = 17.9

---

System: human prostate PC-3 cancer cell line
Experiment: In vitro cytotoxic screening (MTT assay), PC-3
Format: cell-based
Details: 100 µM; average ± standard deviation
Could you please report measured Percentage cytotoxicity on PC-3 for the items listed next?
Write the number in % without appending the unit.

Percentage cytotoxicity on PC-3 reported for this molecule O=c1c2c3c(sc2nc2[nH]c(-c4ccc(Cl)cc4)nn12)CCC3 [Compound 10a] : 40.9

Percentage cytotoxicity on PC-3 reported for this molecule O=c1c2c3c(sc2nc2nc([C@@H](O)[C@@H](O)[C@H](O)[C@H](O)CO)[nH]n12)CCC3 [Compound 11c] : 8.5

Percentage cytotoxicity on PC-3 reported for this molecule CC(=O)OC[C@@H](OC(C)=O)[C@@H](OC(C)=O)[C@H](OC(C)=O)c1nc2nc3sc4c(c3c(=O)n2[nH]1)CCC4 [Compound 12d] : 14.1

Percentage cytotoxicity on PC-3 reported for this molecule O=c1c2c3c(sc2nc2[nH]c(=S)[nH]n12)CCC3 [Compound 9] : 19.3

---

Test system: human prostate PC-3 cancer cell line
Test: In vitro cytotoxic screening (MTT assay), PC-3
Assay type: cell-based
Settings: 50 µM; average ± standard deviation
Description: Using human breast MCF-7, colorectal HCT-116, and prostate PC-3 cancer cell lines, preliminary antiproliferative effectiveness of cyclopenta[4,5]thieno[2,3-d][1,2,4]triazolo[1,5-a]pyrimidin-9(6H)-ones 4–16 was established in vitro through MTT assay at different concentrations (100, 50, 25 and 12.5 μM) (Figure 2). […]
measuredProperty: Percentage cytotoxicity on PC-3 (%)
Write the number in % without appending the unit.

Percentage cytotoxicity on PC-3 reported for this compound O=c1c2c3c(sc2nc2nc([C@@H](O)[C@@H](O)[C@H](O)[C@H](O)CO)[nH]n12)CCC3 [Compound 11c] : 0.0

Percentage cytotoxicity on PC-3 reported for this compound Cc1nn2c(=O)c3c4c(sc3nc2[nH]1)CCC4 : 0.0

Percentage cytotoxicity on PC-3 reported for this compound O=c1c2c3c(sc2nc2nc([C@H](O)[C@@H](O)[C@H](O)[C@H](O)CO)[nH]n12)CCC3 [Compound 11a] : 7.3

Percentage cytotoxicity on PC-3 reported for this compound CC(=O)C/C(C)=N/n1c(N)nc2sc3c(c2c1=O)CCC3 : 0.0

Percentage cytotoxicity on PC-3 reported for this compound O=c1c2c3c(sc2nc2[nH]c(-c4c5ccccc5cc5ccccc45)nn12)CCC3 [Compound 10e] : 64.2

Percentage cytotoxicity on PC-3 reported for this compound O=c1c2c3c(sc2nc2[nH]cnn12)CCC3 : 0.0

Percentage cytotoxicity on PC-3 reported for this compound CC(=O)C/C(C)=N/n1c(N[C@@H]2O[C@H](COC(C)=O)[C@@H](OC(C)=O)[C@H](OC(C)=O)[C@H]2OC(C)=O)nc2sc3c(c2c1=O)CCC3 : 0.0

Percentage cytotoxicity on PC-3 reported for this compound O=c1c2c3c(sc2nc2[nH]c(-c4ccc([N+](=O)[O-])cc4)nn12)CCC3 [Compound 10c] : 54.8

---

Test system: human prostate PC-3 cancer cell line
Experiment: In vitro cytotoxic screening (MTT assay), PC-3
Type: cell-based
Details: 25 µM; average ± standard deviation
measuredProperty: Percentage cytotoxicity on PC-3 (%)
Write the number in % without appending the unit.

Percentage cytotoxicity on PC-3 reported for this compound O=c1c2c3c(sc2nc2[nH]c(=S)[nH]n12)CCC3 [Compound 9] : 6.3

Percentage cytotoxicity on PC-3 reported for this compound CC(=O)OC[C@H]1O[C@@H](n2cnn3c(=O)c4c5c(sc4nc23)CCC5)[C@H](OC(C)=O)[C@@H](OC(C)=O)[C@@H]1OC(C)=O [Compound 14] : 0.0

Percentage cytotoxicity on PC-3 reported for this compound O=c1c2c3c(sc2nc2[nH]c(-c4ccc(Cl)cc4)nn12)CCC3 [Compound 10a] : 30.7

Percentage cytotoxicity on PC-3 reported for this compound O=c1c2c3c(sc2nc2[nH]c(-c4c5ccccc5cc5ccccc45)nn12)CCC3 [Compound 10e] : 56.6

Percentage cytotoxicity on PC-3 reported for this compound CC(=O)C/C(C)=N/n1c(N[C@@H]2O[C@H](COC(C)=O)[C@@H](OC(C)=O)[C@H](OC(C)=O)[C@H]2OC(C)=O)nc2sc3c(c2c1=O)CCC3 [Compound 15] : 0.0

Percentage cytotoxicity on PC-3 reported for this compound CC(=O)OC[C@@H](OC(C)=O)[C@H](OC(C)=O)[C@H](OC(C)=O)[C@@H](OC(C)=O)c1nc2nc3sc4c(c3c(=O)n2[nH]1)CCC4 [Compound 12b] : 4.8

Percentage cytotoxicity on PC-3 reported for this compound O=c1c2c3c(sc2nc2nc([C@H](O)[C@@H](O)[C@H](O)[C@H](O)CO)[nH]n12)CCC3 [Compound 11a] : 21.9

Percentage cytotoxicity on PC-3 reported for this compound O=c1c2c3c(sc2nc2nc([C@H](O)[C@@H](O)[C@@H](O)[C@H](O)CO)[nH]n12)CCC3 [Compound 11b] : 0.0

Percentage cytotoxicity on PC-3 reported for this compound CC(=O)C/C(C)=N/n1c(N)nc2sc3c(c2c1=O)CCC3 [Compound 8] : 0.0

Percentage cytotoxicity on PC-3 reported for this compound CCOC(=O)Cc1nn2c(=O)c3c4c(sc3nc2[nH]1)CCC4 [Compound 6] : 0.0

Percentage cytotoxicity on PC-3 reported for this compound O=c1c2c3c(sc2nc2nc([C@@H](O)[C@H](O)[C@H](O)CO)[nH]n12)CCC3 [Compound 11d] : 6.8

Percentage cytotoxicity on PC-3 reported for this compound O=c1c2c3c(sc2nc2[nH]c(-c4ccc(Br)cc4)nn12)CCC3 [Compound 10b] : 18.4

Percentage cytotoxicity on PC-3 reported for this compound O=c1c2c3c(sc2nc2[nH]c(-c4ccc([N+](=O)[O-])cc4)nn12)CCC3 [Compound 10c] : 53.4

Percentage cytotoxicity on PC-3 reported for this compound Cc1nn2c(=O)c3c4c(sc3nc2[nH]1)CCC4 [Compound 5] : 0.0

Percentage cytotoxicity on PC-3 reported for this compound COc1ccc(-c2nn3c(=O)c4c5c(sc4nc3[nH]2)CCC5)cc1 [Compound 10d] : 21.6

Percentage cytotoxicity on PC-3 reported for this compound CC(=O)OC[C@@H](OC(C)=O)[C@@H](OC(C)=O)[C@H](OC(C)=O)c1nc2nc3sc4c(c3c(=O)n2[nH]1)CCC4 [Compound 12d] : 0.0

Percentage cytotoxicity on PC-3 reported for this compound O=c1c2c3c(sc2nc2nc([C@@H](O)[C@@H](O)[C@H](O)[C@H](O)CO)[nH]n12)CCC3 [Compound 11c] : 0.0

Percentage cytotoxicity on PC-3 reported for this compound O=c1c2c3c(sc2nc2[nH]cnn12)CCC3 [Compound 4] : 0.0

Percentage cytotoxicity on PC-3 reported for this compound COc1ccc(-c2nn3c(=O)c4c5c(sc4nc3n2[C@@H]2O[C@H](COC(C)=O)[C@@H](OC(C)=O)[C@H](OC(C)=O)[C@H]2OC(C)=O)CCC5)cc1 [Compound 16] : 0.0
